// data source = ChEMBL document CHEMBL4602616

# Test system: PC-3
# Assay details: Antiproliferative activity against human PC3 cells assessed as reduction in cell viability
# Assay type: functional, cell-based
Observed property: pIC50
Answers are plain numbers, as −log10 of the molar value.

Solved cases (3 shown):
[
  {
    "Structure smiles string": "COc1ccc(C(=O)c2[nH]c3cc(Cl)ccc3c2NC(=O)CNc2ccc(F)cc2)cc1",
    "pIC50": 4.66
  },
  {
    "Structure smiles string": "O=C(CNc1ccccc1)Nc1c(C(=O)c2ccccc2)[nH]c2cc(Cl)ccc12",
    "pIC50": 4.84
  },
  {
    "Structure smiles string": "COc1ccc(C(=O)c2[nH]c3cc(Cl)ccc3c2NC(=O)CNc2ccc(C)cc2)cc1",
    "pIC50": 4.80
  }
]

Consider the additional molecule presented here.
// query pIC50 value for entry "COc1ccc(NCC(=O)Nc2c(C(=O)c3ccc(OC)cc3)[nH]c3ccccc23)cc1"
4.36
